Every entry's value here was drawn from PubChem BioAssay (NCATS).

Molecular target: Glucocorticoid receptor (Homo sapiens)
Experiment: qHTS assay for small molecule agonists of glucocorticoid receptor signaling (AID 588532);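 further: 100% = dexamethasone at 0.1 µM and 0% = DMSO only wells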
Conditions: HeLa MMTV-bla, beta-lactamase ratio, agonist, 18 h; stronger effect = higher value; percent of dexamethasone control, DMSO zero
Source text: NIH Chemical Genomics Center [NCGC] U.S. Environmental Protection Agency [EPA] National Institutes of Environmental Health Sciences [NIEHS] National Toxicology Program [NTP] […] NCGC Assay Protocol Summary Using a beta-lactamase reporter-gene under control of glucocorticoid response element (GRE), a cell-based assay [CellSensor MMTV-bla HeLa cell line assay developed by Invitrogen] was used to measure GR ligands signaling. […] Detection; Fluorescence; Envision plate reader
Inconclusive results are not listed.
ENDPOINT LABEL: activation (%)
Your answer should be a plain number; it is taken to be in %.

Lookup: Could you share what activation was measured for C=CCCl , tested on Glucocorticoid receptor (Homo sapiens)?
Found: 2.78

Lookup: Could you share what activation was measured for BrC(Br)Br , tested on Glucocorticoid receptor (Homo sapiens)?
Found: -1.59

Lookup: Could you share what activation was measured for [N-]=[N+]=[N-] , tested on Glucocorticoid receptor (Homo sapiens)?
Found: -7.88

Lookup: Could you share what activation was measured for N#CCCCCC#N , tested on Glucocorticoid receptor (Homo sapiens)?
Found: -2.66

Lookup: Could you share what activation was measured for CCCCCCCCCCCCCl , tested on Glucocorticoid receptor (Homo sapiens)?
Found: 2.7

Lookup: Could you share what activation was measured for ClCC(Br)CBr (centres undefined) , tested on Glucocorticoid receptor (Homo sapiens)?
Found: -3.35

Lookup: Could you share what activation was measured for Cl/C=C/CCl , tested on Glucocorticoid receptor (Homo sapiens)?
Found: 1.37

Lookup: Could you share what activation was measured for CCC#N , tested on Glucocorticoid receptor (Homo sapiens)?
Found: -7.32

Lookup: Could you share what activation was measured for CN(C)c1ccccc1 , tested on Glucocorticoid receptor (Homo sapiens)?
Found: -11

Lookup: Could you share what activation was measured for ClCCOCOCCCl , tested on Glucocorticoid receptor (Homo sapiens)?
Found: -0.285

Lookup: Could you share what activation was measured for c1ccc(C2CO2)cc1 (centres undefined) , tested on Glucocorticoid receptor (Homo sapiens)?
Found: 9.49

Lookup: Could you share what activation was measured for O=NN1CCCCC1 , tested on Glucocorticoid receptor (Homo sapiens)?
Found: 0.249

Lookup: Could you share what activation was measured for C=CC(=O)OCCO , tested on Glucocorticoid receptor (Homo sapiens)?
Found: 19.7

Lookup: Could you share what activation was measured for O=C(O)CCl , tested on Glucocorticoid receptor (Homo sapiens)?
Found: 1.7

Lookup: Could you share what activation was measured for CCCCOCC1CO1 (centres undefined) , tested on Glucocorticoid receptor (Homo sapiens)?
Found: -2.49

Lookup: Could you share what activation was measured for Clc1cccc(Cl)c1 , tested on Glucocorticoid receptor (Homo sapiens)?
Found: -3.34

Lookup: Could you share what activation was measured for C=CC(=O)OCCN(C)C , tested on Glucocorticoid receptor (Homo sapiens)?
Found: 1.15

Lookup: Could you share what activation was measured for CN(C)C(=O)Cl , tested on Glucocorticoid receptor (Homo sapiens)?
Found: 12.7

Lookup: Could you share what activation was measured for Clc1cc(Cl)c(Cl)c(Cl)c1 , tested on Glucocorticoid receptor (Homo sapiens)?
Found: 16.9

###

test: qHTS assay for small molecule agonists of the antioxidant response element (ARE) signaling pathway (AID 651741); conditions: HepG2 ARE-bla reporter, beta-lactamase FRET ratio, 16 h; series mostly up to 96 µM; on activation: % of control where 0% means no effect
Inconclusive results are not listed. Activity calls are given as the source filed them. Calls follow the shape of the dose curve; as a rule, active = well fitted activation curve with a large enough effect in the signal ratio; inconclusive = small, poorly fitted or top-dose-only effect, or effect the other way, or a change in a side signal; inactive = flat fitted curve, though single readings scatter; the % refers to the signal ratio.
Pick one and only one: Y = active, N = inactive

Lookup: Returns: the outcome recorded for C=CC(=O)OCCO in this assay.
Found: Y

Lookup: Returns: the outcome recorded for COc1c(C(C)(C)C)cc([N+](=O)[O-])c(C)c1[N+](=O)[O-] in this assay.
Found: N

Lookup: Returns: the outcome recorded for O=Cc1ccc2c(c1)OCO2 in this assay.
Found: N

Lookup: Returns: the outcome recorded for CCSC(=O)N1CCCCCC1 in this assay.
Found: Y

Lookup: Returns: the outcome recorded for ClC(Cl)C(Cl)Cl in this assay.
Found: N

Lookup: Returns: the outcome recorded for CC(C)(OOC(C)(C)c1ccccc1)c1ccccc1 in this assay.
Found: N

Lookup: Returns: the outcome recorded for CCN(CC)CCO in this assay.
Found: N

Lookup: Returns: the outcome recorded for Oc1c(Cl)c(Cl)cc(Cl)c1Cl in this assay.
Found: Y

Lookup: Returns: the outcome recorded for CC(C)OC(=O)Cc1ccccc1 in this assay.
Found: N

Lookup: Returns: the outcome recorded for NC1CCC(CC2CCC(N)CC2)CC1 (configuration not stated) in this assay.
Found: N

Lookup: Returns: the outcome recorded for Clc1cccc2ccccc12 in this assay.
Found: N

Lookup: Returns: the outcome recorded for C=C(Cl)CCl in this assay.
Found: N

Lookup: Returns: the outcome recorded for CC(=O)CCC(C)=O in this assay.
Found: N

Lookup: Returns: the outcome recorded for CSSC in this assay.
Found: N

Lookup: Returns: the outcome recorded for CN(C)c1ccc(N)cc1 in this assay.
Found: Y

Lookup: Returns: the outcome recorded for COC(=O)Nc1nc2ccccc2[nH]1 in this assay.
Found: Y

Lookup: Returns: the outcome recorded for O=NN1CCCCC1 in this assay.
Found: N

###

assay: qHTS assay for small molecule antagonists of peroxisome proliferator-activated receptor delta signaling (AID 588535); details: HEK293T PPARd-UAS-bla, beta-lactamase FRET ratio, 18 h; 460 nm channel;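 further: cells co-treated with a PPAR-delta agonist as stimulator during compound exposure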
Results filed as inconclusive are left out.
Binning of max response into classes: low range = under -10%, mid range = from -10% up to 10%, high range = 10% and over

Lookup: For C=CC(=O)OCCO , which max response bin applies?
Found: mid range

Lookup: For O=C(O)c1cccc(Cl)c1 , which max response bin applies?
Found: high range

Lookup: For C1CC2OC2CC1C1CO1 (stereo unspecified) , which max response bin applies?
Found: high range

Lookup: For Cc1ccc([N+](=O)[O-])cc1 , which max response bin applies?
Found: high range

Lookup: For Nc1ccc([N+](=O)[O-])cc1N , which max response bin applies?
Found: mid range

Lookup: For CC(=O)NNc1ccccc1 , which max response bin applies?
Found: high range

Lookup: For O=C(O)C(Br)CBr (stereo unspecified) , which max response bin applies?
Found: high range

Lookup: For c1ccc2c(c1)CCNC2 , which max response bin applies?
Found: mid range

Lookup: For ClCC(Cl)Cl , which max response bin applies?
Found: low range

Lookup: For CCCN(CCC)c1c([N+](=O)[O-])cc(C(F)(F)F)cc1[N+](=O)[O-] , which max response bin applies?
Found: mid range

Lookup: For COc1ccc(C=O)cc1 , which max response bin applies?
Found: mid range

Lookup: For CCCCOC(C)=O , which max response bin applies?
Found: high range

Lookup: For ClCc1ccccc1 , which max response bin applies?
Found: low range

Lookup: For Cc1ccccc1[N+](=O)[O-] , which max response bin applies?
Found: low range

Lookup: For ClC=CCl , which max response bin applies?
Found: high range

Lookup: For O=[N+]([O-])c1ccccc1CCl , which max response bin applies?
Found: low range

Lookup: For O=C(Cc1ccccc1)OCc1ccccc1 , which max response bin applies?
Found: high range

Lookup: For Clc1ccc(C(Cl)(Cl)Cl)c(Cl)c1 , which max response bin applies?
Found: mid range

Lookup: For CCC(Cl)[N+](=O)[O-] (stereo unspecified) , which max response bin applies?
Found: mid range

Lookup: For Oc1c(Cl)c(Cl)cc(Cl)c1Cl , which max response bin applies?
Found: low range

Lookup: For C=C(Cl)CSC(=S)N(CC)CC , which max response bin applies?
Found: low range

Lookup: For CC(C)CON=O , which max response bin applies?
Found: mid range

Lookup: For CCOP(=S)(OCC)Oc1nc(Cl)c(Cl)cc1Cl , which max response bin applies?
Found: high range

Lookup: For Cc1ccc2c(C)cccc2c1 , which max response bin applies?
Found: high range

Lookup: For Cl/C=C\Cl , which max response bin applies?
Found: low range

Lookup: For OCC(Cl)CCl (stereo unspecified) , which max response bin applies?
Found: low range

Lookup: For CN=C=O , which max response bin applies?
Found: high range

Lookup: For Cl/C=C/CCl , which max response bin applies?
Found: mid range

Lookup: For O=P(OCCCl)(OCCCl)OCCCl , which max response bin applies?
Found: high range

Lookup: For O=NN1CCCCC1 , which max response bin applies?
Found: low range

Lookup: For O=[N+]([O-])c1ccc(Cl)c(Cl)c1Cl , which max response bin applies?
Found: low range

Lookup: For c1ccc(P(c2ccccc2)c2ccccc2)cc1 , which max response bin applies?
Found: high range

Lookup: For C=CCO , which max response bin applies?
Found: high range

Lookup: For OCCOCCO , which max response bin applies?
Found: mid range

Lookup: For Nc1cc(Cl)cc(Cl)c1 , which max response bin applies?
Found: low range

Lookup: For CC(=O)CCC(C)=O , which max response bin applies?
Found: low range
